Test system: OVCAR-5 complex spheroids with HUVEC/MSC, viability, % test/control
measurementNotes: Anticancer human tumor OVCAR-5 cell line growth inhibition [AhR];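 further: spheroids exposed to compounds for 7 days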;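 on viability, T/C: 100% = DMSO vehicle control wells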
cond: second compound 0.1 µM; first compound 1 µM; stronger effect = lower value
For each of the compounds below, state its viability, T/C.
Note: unit % is implicit; provide only the numeric part.

Challenge: I would be grateful if you could share the reported viability, T/C for O=C(c1cc(Cc2n[nH]c(=O)c3ccccc23)ccc1F)N1CCN(C(=O)C2CC2)CC1 + Cc1ccccc1N=Nc1ccc(NC(=O)c2ccnn2C)c(C)c1 .
Response given: 99.8

Challenge: Can you share its viability, T/C? I mean this compound: Nc1ncn(C2CC(O)C(CO)O2)c(=O)n1 (configuration not stated) + CC(CO)NC(=O)c1cc(-c2ccc(Cl)cc2)nn(-c2cnn(C)c2)c1=O
Response given: 62.4

Challenge: Recorded viability, T/C for O=C(C=Cc1cccc(S(=O)(=O)Nc2ccccc2)c1)NO + Cc1ccccc1N=Nc1ccc(NC(=O)c2ccnn2C)c(C)c1 , please?
Response given: 53

Challenge: Which measured viability, T/C value corresponds to O=C(c1cc(Cc2n[nH]c(=O)c3ccccc23)ccc1F)N1CCN(C(=O)C2CC2)CC1 + Cc1cncc(-c2nc(NCCc3c[nH]c4ccccc34)c3ncn(C(C)C)c3n2)c1 ?
Response given: 87.5

Challenge: Could you tell me which viability, T/C is on file for Nc1ccn(C2OC(CO)C(O)C2(F)F)c(=O)n1 (configuration not stated) + Cc1cncc(-c2nc(NCCc3c[nH]c4ccccc34)c3ncn(C(C)C)c3n2)c1 ?
Response given: 33

Challenge: What value of measured viability, T/C is listed for CC1COCCN1c1cc(-c2ccnn2C)c2ccnc(-c3ccn[nH]3)c2n1 (configuration not stated) + Cc1ccccc1N=Nc1ccc(NC(=O)c2ccnn2C)c(C)c1 ?
Response given: 26.3

Challenge: Dear colleague, I am looking for the recorded viability, T/C of the following compound: COc1cc(C2c3cc4c(cc3C(OC3OC5COC(C)OC5C(O)C3O)C3COC(=O)C23)OCO4)cc(OC)c1O (configuration not stated) + Cc1ccccc1N=Nc1ccc(NC(=O)c2ccnn2C)c(C)c1
Response given: 68.3

Challenge: Give the measured viability, T/C of CC1(C)CCC(CN2CCN(c3ccc(C(=O)NS(=O)(=O)c4ccc(NCC5CCOCC5)c([N+](=O)[O-])c4)c(Oc4cnc5[nH]ccc5c4)c3)CC2)=C(c2ccc(Cl)cc2)C1 + Cc1ccccc1N=Nc1ccc(NC(=O)c2ccnn2C)c(C)c1 .
Response given: 95.7

Challenge: State the recorded viability, T/C for this entry: COc1cc(Nc2ncc3c(n2)-c2ccc(Cl)cc2C(c2c(F)cccc2OC)=NC3)ccc1C(=O)O + Cc1ccccc1N=Nc1ccc(NC(=O)c2ccnn2C)c(C)c1
Response given: 57.2

Challenge: Which value of viability, T/C has been reported for CC1(C)CCC(CN2CCN(c3ccc(C(=O)NS(=O)(=O)c4ccc(NCC5CCOCC5)c([N+](=O)[O-])c4)c(Oc4cnc5[nH]ccc5c4)c3)CC2)=C(c2ccc(Cl)cc2)C1 + Cc1cncc(-c2nc(NCCc3c[nH]c4ccccc34)c3ncn(C(C)C)c3n2)c1 in the records?
Response given: 106

Challenge: # input compound: COc1ccc([C@@H](O)c2cc(-c3ncnc4cc(N5CCOCC5)ccc34)c(F)cc2Cl)nn1 + CC(CO)NC(=O)c1cc(-c2ccc(Cl)cc2)nn(-c2cnn(C)c2)c1=O ; wanted: its viability, T/C
Response given: 75

Challenge: Which viability, T/C is listed for O=C(c1cc(Cc2n[nH]c(=O)c3ccccc23)ccc1F)N1CCN(C(=O)C2CC2)CC1 + CC(CO)NC(=O)c1cc(-c2ccc(Cl)cc2)nn(-c2cnn(C)c2)c1=O ?
Response given: 102

---

Test system: OVCAR-5 complex spheroids with HUVEC/MSC, viability, % test/control
measurementNotes: Anticancer human tumor OVCAR-5 cell line growth inhibition [AhR];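 further: spheroids exposed to compounds for 7 days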
cond: curve of first compound; second compound 0.316 µM
pIC50: −log10 of the molar value.
Threshold check on pIC50: at or above 6 gives fulfilled, strictly below gives not fulfilled.

Challenge: Reported pIC50 at or above 6? CC1COCCN1c1cc(C2(S(C)(=N)=O)CC2)nc(-c2ccnc3[nH]ccc23)n1 (configuration not stated) + Cc1ccccc1N=Nc1ccc(NC(=O)c2ccnn2C)c(C)c1
Response given: not fulfilled

Challenge: Exam item: decide whether the reported pIC50 for CC1COCCN1c1cc(C2(S(C)(=N)=O)CC2)nc(-c2ccnc3[nH]ccc23)n1 (configuration not stated) + Cc1cncc(-c2nc(NCCc3c[nH]c4ccccc34)c3ncn(C(C)C)c3n2)c1 is at least 6.
Response given: not fulfilled

Challenge: Assess whether reported pIC50 for CC1COCCN1c1cc(C2(S(C)(=N)=O)CC2)nc(-c2ccnc3[nH]ccc23)n1 (configuration not stated) + CC(CO)NC(=O)c1cc(-c2ccc(Cl)cc2)nn(-c2cnn(C)c2)c1=O sits at 6 or higher.
Response given: not fulfilled

Challenge: I'd appreciate it if you could say whether O=C(c1cc(Cc2n[nH]c(=O)c3ccccc23)ccc1F)N1CCN(C(=O)C2CC2)CC1 + Cc1cncc(-c2nc(NCCc3c[nH]c4ccccc34)c3ncn(C(C)C)c3n2)c1 has pIC50 at least equal to 6.
Response given: not fulfilled

Challenge: Please check the record CCc1c2c(nc3ccc(O)cc13)-c1cc3c(c(=O)n1C2)COC(=O)[C@]3(O)CC + Cc1cncc(-c2nc(NCCc3c[nH]c4ccccc34)c3ncn(C(C)C)c3n2)c1 and state if its pIC50 is at or above 6.
Response given: fulfilled

Challenge: Say whether COc1cc(C2c3cc4c(cc3C(OC3OC5COC(C)OC5C(O)C3O)C3COC(=O)C23)OCO4)cc(OC)c1O (configuration not stated) + Cc1ccccc1N=Nc1ccc(NC(=O)c2ccnn2C)c(C)c1 shows pIC50 of 6 or more.
Response given: not fulfilled

Challenge: Please check the record CC(C)CC(NC(=O)C(Cc1ccccc1)NC(=O)c1cnccn1)B(O)O (configuration not stated) + CC(CO)NC(=O)c1cc(-c2ccc(Cl)cc2)nn(-c2cnn(C)c2)c1=O and state if its pIC50 is at or above 6.
Response given: fulfilled

Challenge: Exam item: decide whether the reported pIC50 for O=C(C=Cn1cnc(-c2cc(C(F)(F)F)cc(C(F)(F)F)c2)n1)NNc1cnccn1 + Cc1cncc(-c2nc(NCCc3c[nH]c4ccccc34)c3ncn(C(C)C)c3n2)c1 is at least 6.
Response given: not fulfilled

Challenge: Evaluate NS(=O)(=O)OCC1CC(n2ccc3c(NC4CCc5ccccc54)ncnc32)CC1O (configuration not stated) + Cc1ccccc1N=Nc1ccc(NC(=O)c2ccnn2C)c(C)c1 : pIC50 at minimum 6?
Response given: fulfilled

---

Please provide measured viability, T/C for the entries that follow.
Test system: OVCAR-5 complex spheroids with HUVEC/MSC, viability, % test/control
measurementNotes: Anticancer human tumor OVCAR-5 cell line growth inhibition [AhR];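 further: spheroids exposed to compounds for 7 days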;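 on viability, T/C: 100% = DMSO vehicle control wells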
cond: second compound 3.16 µM; first compound 0.0316 µM; stronger effect = lower value
API: value field is a number in %; no unit string.

Challenge: Which measured viability, T/C value corresponds to NS(=O)(=O)OCC1CC(n2ccc3c(NC4CCc5ccccc54)ncnc32)CC1O (stereo not drawn) + Cc1cncc(-c2nc(NCCc3c[nH]c4ccccc34)c3ncn(C(C)C)c3n2)c1 ?
Response given: 64

Challenge: Which value of viability, T/C has been reported for CC1COCCN1c1cc(-c2ccnn2C)c2ccnc(-c3ccn[nH]3)c2n1 (stereo not drawn) + CC(CO)NC(=O)c1cc(-c2ccc(Cl)cc2)nn(-c2cnn(C)c2)c1=O in the records?
Response given: 102

Challenge: Could you tell me which viability, T/C is on file for NS(=O)(=O)OCC1CC(n2ccc3c(NC4CCc5ccccc54)ncnc32)CC1O (stereo not drawn) + CC(CO)NC(=O)c1cc(-c2ccc(Cl)cc2)nn(-c2cnn(C)c2)c1=O ?
Response given: 72.1

---

Exercise: for every item that follows, state its recorded viability, T/C.
System: OVCAR-5 complex spheroids with HUVEC/MSC, viability, % test/control
measurementNotes: Anticancer human tumor OVCAR-5 cell line growth inhibition [AhR];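 further: spheroids exposed to compounds for 7 days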;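 on viability, T/C: 100% = DMSO vehicle control wells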
cond: second compound 0.316 µM; first compound 0.316 µM; stronger effect = lower value
# value in %; strip the unit string

Challenge: Fill in the blank: the reported viability, T/C of Nc1ccccc1NC(=O)c1ccc(CNC(=O)OCc2cccnc2)cc1 + Cc1cncc(-c2nc(NCCc3c[nH]c4ccccc34)c3ncn(C(C)C)c3n2)c1 is ____.
Response given: 66.8

Challenge: For CC1(C)CCC(CN2CCN(c3ccc(C(=O)NS(=O)(=O)c4ccc(NCC5CCOCC5)c([N+](=O)[O-])c4)c(Oc4cnc5[nH]ccc5c4)c3)CC2)=C(c2ccc(Cl)cc2)C1 + Cc1ccccc1N=Nc1ccc(NC(=O)c2ccnn2C)c(C)c1 , what is its reported viability, T/C?
Response given: 106

Challenge: Returns the measured viability, T/C for the input compound. Input: COc1ccc([C@@H](O)c2cc(-c3ncnc4cc(N5CCOCC5)ccc34)c(F)cc2Cl)nn1 + Cc1ccccc1N=Nc1ccc(NC(=O)c2ccnn2C)c(C)c1
Response given: 97.5

Hello, the source for this data is PubChem BioAssay AID1919015, in case you need it.
